Cited source for all entries: paper PMC5709419

Molecular target: Zur (Salmonella enterica sv. Typhimurium …, UniProt A0A0H3NVF0 1-171)
Experiment: fluorescence anisotropy; Co(II)-Zur, 1 uM CoCl2; 10 nM probe, 60 mM NaCl, 240 mM KCl, 10 mM HEPES pH 7.0, anaerobic; temperature not stated
Details: protein: recombinant; chain copies: 4; label: 5' HEX on strand 1; blunt
Reported Metric: Kd

[ask] Using known records, supply Kd for znuAPro (dsDNA) DNA 1: TAGAATGTTATAATATCACATTTCACACATTCA DNA 2: TGAATGTGTGAAATGTGATATTATAACATTCTA
[reply] 31 nM
